- METHOD_SUMMARY: Plasma stability (mouse plasma)
- Format: in vitro ADME
- CONDITION_SUMMARY: read-out: T½ in mouse plasma (converted)
Reported half-life values for the following compounds.
State the answer as a number, implicitly in h.

Could you share which half-life value was measured for C=C(C)[C@@H]1CCC(C)=C[C@H]1c1c(O)cc(CCCCC)cc1OC(=O)C1(OP(=O)(O)O)CC1.N.N [7b] ?
3.7

Which half-life is listed for C=C(C)[C@@H]1CCC(C)=C[C@H]1c1c(O)cc(CCCCC)cc1O [CBD, Cannabidiol, reference compound] ?
9.6

----------
- METHOD_SUMMARY: Nephelometry solubility in 1% DMSO
- Type: physicochemical
- CONDITION_SUMMARY: aqueous buffer, kinetic from dmso stock, PBS pH 7.0-7.3, 1% DMSO, 25° C.
VALUE_TYPE: solubility at 90 min

Using the record for C=C(C)[C@@H]1CCC(C)=C[C@H]1c1c(O)cc(CCCCC)cc1OC(=O)N(C)CCOP(=O)(O)O.N.N [38b] , report its solubility at 90 min.
> 500 µM

Origin of the recorded values: patent US20250108064A1
